// data source = ChEMBL document CHEMBL1138989

# Tested on: T-24
# run description: Antiproliferative activity against human bladder carcinoma T24 cells
# Assay type: functional
# test conditions: read-out: ED50 (the source's name)
pEC50: −log10 of the molar value.
Task for the reader: assign each of the following compounds its reported pEC50.

Example entries and their recorded answers appear below.
{"structure as smiles": "Oc1cccc2c(O)cccc12", "pEC50": "> 5.00"}
{"structure as smiles": "Oc1ccc2cc(O)ccc2c1", "pEC50": "> 5.00"}

The compound listed as `Oc1ccc2cccc(O)c2c1` has a reported pEC50 of > 5.00
